Please provide measured φ (quantum yield) for the entries that follow.
- procedure-text: Quantum yield measurements
- Format: physicochemical
- measurement-conditions: referred to Rhodamine B in EtOH, excitation 510 nm, emission integrated 540-800 nm

*Q* Please report φ (quantum yield) for the following compound: CC1=CC(/C=C/c2ccc(Cl)c(F)c2)=[N+]2C1=C(CCN)c1cccn1[B-]2(F)F [BDM-437]
*A* 0.21

*Q* Supply recorded φ (quantum yield) for COc1cc(Cl)cc(/C=C/C2=[N+]3C(=C(CCN)c4cccn4[B-]3(F)F)C(C)=C2)c1O [BDM-275] here.
*A* 0.05

*Q* State its φ (quantum yield) for this compound: COc1ccc2[nH]cc(/C=C/C3=[N+]4C(=C(CCN)c5cccn5[B-]4(F)F)C(C)=C3)c2c1 [BDM-93]
*A* 0.06

*Q* Retrieve φ (quantum yield) measured for CC1=CC(/C=C/c2c(C)cccc2C)=[N+]2C1=C(CCN)c1cccn1[B-]2(F)F [BDM-243] and print it.
*A* 0.87

*Q* Give the reported φ (quantum yield) for this compound. CCCCOc1ccc(/C=C/c2cc(C)c3n2[B-](F)(F)[N+]2=CC=CC2=C3CCN)cc1 [BDM-46]
*A* 0.53

*Q* Assign φ (quantum yield) to the following record: COc1cc(Br)cc(/C=C/C2=[N+]3C(=C(CCN)c4cccn4[B-]3(F)F)C(C)=C2)c1OC [BDM-228]
*A* 0.24

*Q* Input Cc1cc(/C=C/c2ccco2)n2c1C(CCN)=C1C=CC=[N+]1[B-]2(F)F [BDM-22] , output reported φ (quantum yield).
*A* 0.14

*Q* Fill in φ (quantum yield) for record CC1=CC(/C=C/c2ccc3c4c(cccc24)CC3)=[N+]2C1=C(CCN)c1cccn1[B-]2(F)F [BDM-89]
*A* 0.30

*Q* Fill in reported φ (quantum yield) for this entry: CC(=O)Nc1ccc(/C=C/C2=[N+]3C(=C(CCN)c4cccn4[B-]3(F)F)C(C)=C2)cc1 [BDM-111]
*A* 0.79

*Q* Specify φ (quantum yield) for COc1cccc(/C=C/C2=[N+]3C(=C(CCN)c4cccn4[B-]3(F)F)C(C)=C2)c1 [BDM-186] and stop.
*A* 0.97

*Q* Give the measured φ (quantum yield) for Cc1cc(/C=C/c2cc(C(C)(C)C)ccc2O)n2c1C(CCN)=C1C=CC=[N+]1[B-]2(F)F [BDM-43]
*A* 0.21

*Q* Please indicate φ (quantum yield) recorded for COc1ccc2c(OC)ccc(/C=C/C3=[N+]4C(=C(CCN)c5cccn5[B-]4(F)F)C(C)=C3)c2c1 [BDM-70]
*A* 0.13

*Q* Answer with the recorded φ (quantum yield) for the compound listed here: Cc1cccc(/C=C/c2cc(C)c3n2[B-](F)(F)[N+]2=CC=CC2=C3CCN)c1 [BDM-9]
*A* 0.33

*Q* Complete the entry with φ (quantum yield) for CC1=CC(/C=C/c2c(C)nn(C)c2C)=[N+]2C1=C(CCN)c1cccn1[B-]2(F)F [BDM-430]
*A* 0.99

*Q* Hello, please tell me recorded φ (quantum yield) for this one: C=CCOc1ccccc1/C=C/C1=[N+]2C(=C(CCN)c3cccn3[B-]2(F)F)C(C)=C1 [BDM-202]
*A* 0.52

*Q* Indicate its recorded φ (quantum yield); the compound in question is CCN(CC)c1ccc(/C=C/C2=[N+]3C(=C(CCN)c4cccn4[B-]3(F)F)C(C)=C2)cc1 [BDM-107]
*A* 0.05

====

- procedure-text: Spectroscopic properties of the BDM library (absorbance and emission maxima)
- Type: physicochemical
Please go through the items and note down their λmax (EM).
Please give a number only; it is taken to be in nm.

*Q* Report measured λmax (EM); entry is CC1=CC(/C=C/c2ccc(C)o2)=[N+]2C1=C(CCN)c1cccn1[B-]2(F)F
*A* 601

*Q* Identify the reported λmax (EM) for the following entry. CCOc1ccc(/C=C/C2=[N+]3C(=C(CCN)c4cccn4[B-]3(F)F)C(C)=C2)c(OCC)c1
*A* 610

*Q* Given CC1=CC(/C=C/c2ccc(OC(F)(F)F)cc2)=[N+]2C1=C(CCN)c1cccn1[B-]2(F)F , respond with its λmax (EM).
*A* 561

*Q* For the compound CCCCCCOc1ccc(/C=C/c2cc(C)c3n2[B-](F)(F)[N+]2=CC=CC2=C3CCN)cc1 , give its measured λmax (EM) value.
*A* 583

*Q* Return λmax (EM) for the following compound: COc1cc(/C=C/c2cc(C)c3n2[B-](F)(F)[N+]2=CC=CC2=C3CCN)cc(OC)c1OC
*A* 586

*Q* Assign λmax (EM) to the following record: CCCCc1ccc(/C=C/C2=[N+]3C(=C(CCN)c4cccn4[B-]3(F)F)C(C)=C2)cc1
*A* 571

*Q* Return the recorded λmax (EM) value; entry: Cc1cc(/C=C/c2ccc(N(c3ccccc3)c3ccccc3)cc2)n2c1C(CCN)=C1C=CC=[N+]1[B-]2(F)F
*A* 624

*Q* Give recorded λmax (EM). CC1=CC(/C=C/c2ccc(OCc3ccccc3)cc2)=[N+]2C1=C(CCN)c1cccn1[B-]2(F)F
*A* 582

*Q* Please report the measured λmax (EM) for C=CCOc1ccc(/C=C/c2cc(C)c3n2[B-](F)(F)[N+]2=CC=CC2=C3CCN)cc1
*A* 583

*Q* Given the compound CC1=CC(/C=C/c2ccc(Oc3ccccc3)cc2)=[N+]2C1=C(CCN)c1cccn1[B-]2(F)F , write its reported λmax (EM).
*A* 576

*Q* Read the entry COc1ccccc1/C=C/C1=[N+]2C(=C(CCN)c3cccn3[B-]2(F)F)C(C)=C1 and write its reported λmax (EM).
*A* 574

*Q* Return value of λmax (EM) for input Cc1cc(/C=C/c2ccccc2-c2ccccc2)n2c1C(CCN)=C1C=CC=[N+]1[B-]2(F)F , no commentary.
*A* 567

*Q* Indicate the recorded λmax (EM) value for this compound: CC1=CC(/C=C/c2ccc3ccccc3c2)=[N+]2C1=C(CCN)c1cccn1[B-]2(F)F
*A* 575

*Q* Tell us which λmax (EM) value is on record for CC1=CC(/C=C/c2ccccc2OCc2ccccc2)=[N+]2C1=C(CCN)c1cccn1[B-]2(F)F
*A* 574

*Q* Supply λmax (EM) value. Item: CC1=CC(/C=C/c2ccc(-c3ccccn3)cc2)=[N+]2C1=C(CCN)c1cccn1[B-]2(F)F
*A* 576

*Q* Annotate the compound C=CCOc1ccccc1/C=C/C1=[N+]2C(=C(CCN)c3cccn3[B-]2(F)F)C(C)=C1 with its measured λmax (EM).
*A* 575

====

- procedure-text: Quantum yield measurements
- Type: physicochemical
- measurement-conditions: referred to Rhodamine B in EtOH, excitation 510 nm, emission integrated 540-800 nm
So basically, if φ (quantum yield) comes in under 0.5 it's Fulfilled, and if it's 0.5 or more it's Not fulfilled.

*Q* Does COc1ccc(/C=C/c2cc(C)c3n2[B-](F)(F)[N+]2=CC=CC2=C3CCN)c(Cl)c1O have φ (quantum yield) strictly under 0.5?
*A* Fulfilled

*Q* Is 0.5 strictly greater than the compound's reported φ (quantum yield)? compound: COC(=O)c1ccc(-c2ccc(/C=C/C3=[N+]4C(=C(CCN)c5cccn5[B-]4(F)F)C(C)=C3)cc2)cc1
*A* Fulfilled

*Q* Is the reported φ (quantum yield) for CC1=CC(/C=C/c2ccc(Oc3ccccc3)cc2)=[N+]2C1=C(CCN)c1cccn1[B-]2(F)F strictly below 0.5?
*A* Not fulfilled

*Q* Is the reported φ (quantum yield) for CC1=CC(/C=C/c2ccc(-c3ccc(Cl)cc3)o2)=[N+]2C1=C(CCN)c1cccn1[B-]2(F)F strictly below 0.5?
*A* Fulfilled

*Q* Could you please tell me whether φ (quantum yield) recorded for CC1=CC(/C=C/c2ccc(Oc3ccc(Cl)c(Cl)c3)cc2)=[N+]2C1=C(CCN)c1cccn1[B-]2(F)F is less than 0.5?
*A* Fulfilled

*Q* Hello, I'm reviewing records and need to know if φ (quantum yield) of CC1=CC(/C=C/c2ccc(C(C)(C)C)cc2)=[N+]2C1=C(CCN)c1cccn1[B-]2(F)F is below 0.5. Could you check?
*A* Not fulfilled

*Q* Criterion: φ (quantum yield) strictly below 0.5. Is it met by CC1=CC(/C=C/c2ccc(OCCCN(C)C)cc2)=[N+]2C1=C(CCN)c1cccn1[B-]2(F)F ?
*A* Fulfilled

====

- procedure-text: Quantum yield measurements
- Format: physicochemical
- measurement-conditions: referred to Rhodamine B in EtOH, excitation 510 nm, emission integrated 540-800 nm
measured-property: φ (quantum yield)
# respond with the number and nothing more

*Q* Write down φ (quantum yield) measured for item COc1ccc(/C=C/C2=[N+]3C(=C(CCN)c4cccn4[B-]3(F)F)C(C)=C2)cc1OC [BDM-62]
*A* 0.43

*Q* Look up and report measured φ (quantum yield) for this entry: COc1cc(OC)c(/C=C/C2=[N+]3C(=C(CCN)c4cccn4[B-]3(F)F)C(C)=C2)c(OC)c1 [BDM-82]
*A* 0.40

*Q* Hello, please tell me recorded φ (quantum yield) for this one: CC1=CC(/C=C/c2c(C)cc(C)cc2C)=[N+]2C1=C(CCN)c1cccn1[B-]2(F)F [BDM-108]
*A* 0.35

*Q* Provide one value: measured φ (quantum yield) of CC1=CC(/C=C/c2ccc(C)s2)=[N+]2C1=C(CCN)c1cccn1[B-]2(F)F [BDM-236]
*A* 0.22

*Q* Look up φ (quantum yield) of CC1=CC(/C=C/c2cc(C)c(C)cc2C)=[N+]2C1=C(CCN)c1cccn1[B-]2(F)F [BDM-343] and report it.
*A* 0.28

*Q* Entry CC1=CC(/C=C/c2ccc(OC(F)(F)F)cc2)=[N+]2C1=C(CCN)c1cccn1[B-]2(F)F [BDM-68] needs its φ (quantum yield) filled in; supply it.
*A* 0.63

*Q* Item CC1=CC(/C=C/c2ccc(C)cc2Br)=[N+]2C1=C(CCN)c1cccn1[B-]2(F)F [BDM-267] : provide φ (quantum yield)
*A* 0.21

*Q* Please give measured φ (quantum yield) of the following entry: COc1ccc(/C=C/C2=[N+]3C(=C(CCN)c4cccn4[B-]3(F)F)C(C)=C2)cc1Br [BDM-260]
*A* 0.05

*Q* Output measured φ (quantum yield) for this item: CC1=CC(/C=C/c2c(Cl)ccc(C)c2F)=[N+]2C1=C(CCN)c1cccn1[B-]2(F)F [BDM-246]
*A* 0.17

*Q* Look up and state reported φ (quantum yield) for CCOc1cc(/C=C/C2=[N+]3C(=C(CCN)c4cccn4[B-]3(F)F)C(C)=C2)ccc1O [BDM-397]
*A* 0.10

*Q* Indicate the recorded φ (quantum yield) value for this compound: COc1ccc(/C=C/C2=[N+]3C(=C(CCN)c4cccn4[B-]3(F)F)C(C)=C2)c(C)c1C [BDM-310]
*A* 0.42

*Q* Quick one: give measured φ (quantum yield) for CC1=CC(/C=C/c2cc(F)ccc2O)=[N+]2C1=C(CCN)c1cccn1[B-]2(F)F [BDM-318]
*A* 0.11

*Q* Item CCOc1ccc(/C=C/C2=[N+]3C(=C(CCN)c4cccn4[B-]3(F)F)C(C)=C2)cc1OC [BDM-63] : provide φ (quantum yield)
*A* 0.54

*Q* Please indicate φ (quantum yield) recorded for CCOc1c(/C=C/C2=[N+]3C(=C(CCN)c4cccn4[B-]3(F)F)C(C)=C2)cccc1OC [BDM-320]
*A* 0.21

*Q* Please give measured φ (quantum yield) of the following entry: COc1ccc(/C=C/C2=[N+]3C(=C(CCN)c4cccn4[B-]3(F)F)C(C)=C2)cc1O [BDM-132]
*A* 0.05

*Q* Give the reported φ (quantum yield) for this compound. COc1ccc(/C=C/C2=[N+]3C(=C(CCN)c4cccn4[B-]3(F)F)C(C)=C2)c(Cl)c1OC [BDM-372]
*A* 0.55

*Q* Specify reported φ (quantum yield) for the compound shown: CC1=CC(/C=C/c2ccc(-c3ccccc3)s2)=[N+]2C1=C(CCN)c1cccn1[B-]2(F)F [BDM-65]
*A* 0.15

*Q* Provide only the value of recorded φ (quantum yield) for CC1=CC(/C=C/c2ccccc2Cl)=[N+]2C1=C(CCN)c1cccn1[B-]2(F)F [BDM-207]
*A* 0.24

*Q* Return value of φ (quantum yield) for input CC1=CC(/C=C/c2ccc(Oc3ccc(C)cc3)cc2)=[N+]2C1=C(CCN)c1cccn1[B-]2(F)F [BDM-300] , no commentary.
*A* 0.44

*Q* Quote φ (quantum yield) reported for CCOc1ccc(/C=C/C2=[N+]3C(=C(CCN)c4cccn4[B-]3(F)F)C(C)=C2)c(OCC)c1 [BDM-316] please.
*A* 0.46

*Q* For the compound CCCOc1ccc(/C=C/C2=[N+]3C(=C(CCN)c4cccn4[B-]3(F)F)C(C)=C2)cc1 [BDM-140] , report φ (quantum yield).
*A* 0.57

*Q* Supply reported φ (quantum yield) belonging to this compound: COc1ccc(/C=C/c2cc(C)c3n2[B-](F)(F)[N+]2=CC=CC2=C3CCN)cc1OCc1ccccc1 [BDM-7]
*A* 0.37

*Q* Using the record for CC1=CC(/C=C/c2cccc(O)c2)=[N+]2C1=C(CCN)c1cccn1[B-]2(F)F [BDM-105] , state its measured φ (quantum yield).
*A* 0.18

*Q* Could you please provide reported φ (quantum yield) for COc1ccc(/C=C/C2=[N+]3C(=C(CCN)c4cccn4[B-]3(F)F)C(C)=C2)c(O)c1 [BDM-192] ? Thanks!
*A* 0.20

Values from patent US9267949B2
